# testedOn: HIV-1 protease (Human immunodeficiency virus type 1 group M subtype B)
# Construct: The protease (or proteinase), consisting of only 99 amino acids, is among the smallest enzymes known
# assayRemarks: In vitro HIV protease inhibitory assay (HIV Protease FITC Assay)
# Assay type: biochemical
# testConditions: HIV-1 Dose 0.370 uM; read-out: HIV-1 Protease % Inhib
endpointName: inhibition at 0.37 µM (%)
Respond with the bare value in %.

compound: CCC(Cc1ccc(F)cc1)c1cc(O)c(C(c2ccccc2)C2CC2)c(=O)o1 (centres unmarked) [Example 154]
testedOn: HIV-1 protease (Human immunodeficiency virus type 1 group M subtype B)
inhibition at 0.37 µM (%): 57.3

compound: CC(C)C(CC1CCCOC1)c1cc(O)c(C(c2ccccc2)C2CC2)c(=O)o1 (centres unmarked) [Example 134]
testedOn: HIV-1 protease (Human immunodeficiency virus type 1 group M subtype B)
inhibition at 0.37 µM (%): 57.5

compound: O=c1oc(CC(O)c2ccc(Cl)cc2)cc(O)c1C(c1ccccc1)C1CC1 (centres unmarked) [Example 149]
testedOn: HIV-1 protease (Human immunodeficiency virus type 1 group M subtype B)
inhibition at 0.37 µM (%): 19.7

compound: CCC(Cc1ccccc1)c1cc(O)c(C(c2cccc(NC(=O)NCc3ccccc3)c2)C2CC2)c(=O)o1 (centres unmarked) [Example 213]
testedOn: HIV-1 protease (Human immunodeficiency virus type 1 group M subtype B)
inhibition at 0.37 µM (%): 12.1

// switching to the query compound
I have this compound here, CCC(Cc1ccccc1)c1cc(O)c(C(c2cccc(NC(=O)NS(=O)(=O)c3ccccc3)c2)C2CC2)c(=O)o1 (centres unmarked) [Example 216] , and I need its recorded inhibition at 0.37 µM.
29.8

---

# testedOn: HIV-1 protease (Human immunodeficiency virus type 1 group M subtype B, UniProt P04585)
# Construct: The protease (or proteinase), consisting of only 99 amino acids, is among the smallest enzymes known
# assayRemarks: In vitro HIV protease inhibitory assay (HIV Protease FITC Assay)
# Assay type: biochemical
# testConditions: read-out: HIV-1 Protease % Inhib
Counter-ions that a name gives are not always drawn.
endpointName: inhibition at 10 µM (%)
The figure you give is taken to be in %; do not add the unit.

Some compounds with known inhibition at 10 µM results, for comparison:
compound: CCCC1(CCc2ccccc2)CC(O)=C(C(CC)c2ccccc2)C(=O)O1 (stereo not shown)
unitText: %
inhibition at 10 µM: 107
//
compound: CCC(Cc1ccccc1)c1cc(O)c(C(c2cccc(NC(=O)Cc3ccncc3)c2)C2CC2)c(=O)o1 (stereo not shown)
unitText: %
inhibition at 10 µM: 103
//
compound: CCC(Cc1ccccc1)c1cc(O)c(C(c2cccc(NC(=O)[C@H](Cc3c[nH]cn3)NC(=O)OC(C)(C)C)c2)C2CC2)c(=O)o1 (stereo partly shown)
unitText: %
inhibition at 10 µM: 101
//
compound: C=CC(C1=C(O)CC2(CCCCC2Cc2ccccc2)OC1=O)c1ccccc1 (stereo not shown)
unitText: %
inhibition at 10 µM: 80.7
//
compound: CCCC1(CCc2ccccc2)CC(O)=C(C(/C=C/c2ccccc2)c2ccccc2)C(=O)O1 (stereo not shown)
unitText: %
inhibition at 10 µM: 95.1

# get_value(readout='inhibition at 10 µM', item= CCC(C1=C(O)CC2(CCCCC2)OC1=O)c1ccccc1 (stereo not shown) [Example 33, sodium salt] )
68.5

Param item = CCC(Cc1ccccc1)c1cc(O)c(C(c2cccc(NS(=O)(=O)c3ccc(Cl)cc3)c2)C2CC2)c(=O)o1 (stereo not shown) ; retrieve measured inhibition at 10 µM.
110

Suppose we examine the compound CCC(c1ccccc1)C1C(=O)CC(CC)(c2ccccc2)OC1=O (stereo not shown) ; what inhibition at 10 µM value has been reported?
78.8

Item CCCC1(CCc2ccccc2)CC(O)=C(C(CCc2ccccc2)c2ccccc2)C(=O)O1 (stereo not shown) has what recorded inhibition at 10 µM?
96.8

Given the compound CCC(C1=C(O)CC2(CCCCCCC2)OC1=O)c1ccccc1 (stereo not shown) , what is its reported inhibition at 10 µM?
66.8

Looking for the measured inhibition at 10 µM of CCC(C1=C(O)CC(Cc2ccccc2)(c2ccccc2)OC1=O)c1ccccc1 (stereo not shown) , can you help?
33.2

Returns the measured inhibition at 10 µM for the input compound. Input: CCC(C1=C(O)CC(c2ccccc2)(C2CCCCC2)OC1=O)c1cccc(O)c1 (stereo not shown)
81

If you can, please state the reported inhibition at 10 µM value of CCCC1(c2ccccc2)CC(O)=C(C(CC)c2ccccc2)C(=O)O1 (stereo not shown) .
106
